# credit: PubChem BioAssay AID624344

assay: NFkB reporter suppression in cystic fibrosis bronchial cells – cell-based, uHTS hits, panel, cytotoxicity readout, dose response (AID 624344); conditions: CF bronchial epithelial cells, PAF-induced NFkB reporter inhibition; with PAF, mean of runs
Active and inactive are the calls of the source. The rule behind the calls is not given here. Square brackets hold non-standard residues; d marks the D form. Peptide text beside a SMILES is read from it. * marks the point of attachment. NMeY = CN[C@@H](Cc1ccc(O)cc1)C(=O)O; NMeF = CN[C@@H](Cc1ccccc1)C(=O)O; 2Abz = Nc1ccccc1C(=O)O; CH2Cl = ClC*
Classes to choose from: True (active), False (inactive)

### Prompt Which outcome was entered for the compound CCc1nccn1C(=O)c1cnn2c(C(F)F)cc(-c3ccc(C)cc3)nc12 in this test?
### Response True

### Prompt Which outcome was entered for the compound C[C@@H]1CN([C@H](C)CO)C(=O)c2cc(NC(=O)Nc3ccc(C(F)(F)F)cc3)ccc2O[C@H]1CN(C)S(=O)(=O)c1cccs1 in this test?
### Response True

### Prompt Which outcome was entered for the compound CC(C)C[C@@H]1NC(=O)[C@H](Cc2ccccc2)N(C)C(=O)[C@H](C)NC(=O)c2ccccc2NC(=O)[C@H](Cc2ccc(O)cc2)N(C)C1=O (cyclo([2Abz]A[NMeF]L[NMeY])) in this test?
### Response True

### Prompt Which outcome was entered for the compound CCCCN(CCCC)c1ncnc2nc[nH]c12 in this test?
### Response True

### Prompt Which outcome was entered for the compound O=C(O)/C=C/c1ccc2c(-c3ccccc3)onc2c1 in this test?
### Response True

### Prompt Which outcome was entered for the compound COc1ccc(C(=O)Nc2cccc(NC(=O)c3ccc(OC)c(OC)c3)n2)cc1OC in this test?
### Response True

### Prompt Which outcome was entered for the compound N=C1N(c2ccccc2)C(=S)C(=Nc2ccccc2)N1c1ccccc1 in this test?
### Response True

### Prompt Which outcome was entered for the compound O=C1N(c2ccccc2C(F)(F)F)O[C@]1(c1ccccc1)C1CCCCC1 in this test?
### Response True

### Prompt Which outcome was entered for the compound CCOC(=O)c1c(C)c2c(=O)[nH]cnc2n1-c1ccccc1 in this test?
### Response True

### Prompt Which outcome was entered for the compound COc1ccc(/C=N/Nc2nc(-c3cccnc3)nc3ccccc23)cc1OC in this test?
### Response True

### Prompt Which outcome was entered for the compound COc1cccc(-c2ccc3ncnc(NCc4ccc5c(c4)OCO5)c3c2)c1 in this test?
### Response True

### Prompt Which outcome was entered for the compound COc1ccc2cc3c(N)nn(C(=O)c4ccc(F)cc4)c3nc2c1 in this test?
### Response True

### Prompt Which outcome was entered for the compound Cc1ccnc(NC(=O)Cc2ccc(-c3ccccc3)cc2)c1 in this test?
### Response True

### Prompt Which outcome was entered for the compound COc1ccc(C(=O)N[C@H](C(=O)Nc2nc3ccccc3[nH]2)C(C)C)cc1 in this test?
### Response True

### Prompt Which outcome was entered for the compound Cc1ccc(-n2nnnc2Sc2ccc(S(=O)(=O)NCCN(C)C)cc2[N+](=O)[O-])cc1 in this test?
### Response True

### Prompt Which outcome was entered for the compound O=C(Nc1cccnc1)c1sc2cccc(F)c2c1Cl in this test?
### Response True

### Prompt Which outcome was entered for the compound O=C1NCCc2c1[nH]c1c(Cl)ccc(Cl)c21 in this test?
### Response True

### Prompt Which outcome was entered for the compound CC1CCc2sc3ncnc(N4CCOCC4)c3c2C1 (stereo not given) in this test?
### Response True

### Prompt Which outcome was entered for the compound N#CC1c2ccccc2-n2nncc2CN1Cc1cc(Cl)cc(Cl)c1 (stereo not given) in this test?
### Response True

### Prompt Which outcome was entered for the compound Cn1c(Sc2ccc(Cl)cc2)c(C=O)c2ccccc21 in this test?
### Response True

### Prompt Which outcome was entered for the compound c1cc(-c2nnc3sc(C4CCCCC4)nn23)ccn1 in this test?
### Response True

### Prompt Which outcome was entered for the compound COc1cccc2sc(N(CCCN(C)C)C(=O)CCS(=O)(=O)c3ccccc3)nc12 in this test?
### Response True

### Prompt Which outcome was entered for the compound O=C(c1cc([N+](=O)[O-])ccc1N1CCOCC1)N1CCN(c2ccccc2)CC1 in this test?
### Response False

### Prompt Which outcome was entered for the compound COc1ccc(C2=Nn3c(nnc3-c3ccncc3)SC2)cc1 in this test?
### Response True

### Prompt Which outcome was entered for the compound C=CCOc1c(OC)cc(/C=N/Nc2cccc(C(=O)O)c2)c(Br)c1Br in this test?
### Response True

### Prompt Which outcome was entered for the compound O=C(Nc1ccc2c(c1)OCCO2)c1cc(-c2ccccn2)nc2ccc(Br)cc12 in this test?
### Response False

### Prompt Which outcome was entered for the compound COc1ccccc1NS(=O)(=O)c1ccc(-c2cnc(C3CC3)o2)cc1 in this test?
### Response True

### Prompt Which outcome was entered for the compound COc1ccc(NC(=O)Nc2nnc(-c3ccncc3)s2)cc1 in this test?
### Response True

### Prompt Which outcome was entered for the compound CCC(=NCCc1c(C)[nH]c2ccc(C)cc12)C1=C(O)CC(c2ccccc2)CC1=O (stereo not given) in this test?
### Response True

### Prompt Which outcome was entered for the compound Nc1nc(N)nc(-c2ccc(Cl)c(Cl)c2)n1 in this test?
### Response True

### Prompt Which outcome was entered for the compound Cc1ccccc1C(=O)N1CCN(c2ccc(NC(=O)CSc3ccc(Cl)cc3)cc2)CC1 in this test?
### Response True

### Prompt Which outcome was entered for the compound Nc1ncnc(N2CCc3ccccc32)c1[N+](=O)[O-] in this test?
### Response True

### Prompt Which outcome was entered for the compound c1csc(CNc2ncnc3ccc(-c4ccoc4)cc23)c1 in this test?
### Response True

### Prompt Which outcome was entered for the compound CCN(CC)S(=O)(=O)c1ccc(NC(=O)Nc2cccc(C(F)(F)F)c2)cc1 in this test?
### Response True

### Prompt Which outcome was entered for the compound CC(=O)NC(CC(C)C)C(=O)NC(Cc1ccccc1)C(=O)CCl (stereo not drawn) (Ac-Leu-Phe-CH2Cl; configuration not given here) in this test?
### Response True

### Prompt Which outcome was entered for the compound O=c1[nH]c2ccccc2n1C1CCN(C(c2cccc3ccccc23)c2nnnn2Cc2ccccc2)CC1 (stereo not given) in this test?
### Response True

### Prompt Which outcome was entered for the compound CCCc1nnc(NC(=O)c2nc(S(=O)(=O)Cc3ccc(C)cc3)ncc2Cl)s1 in this test?
### Response True

### Prompt Which outcome was entered for the compound O=C(Nc1ccccc1N1CCOCC1)c1cc(-c2ccco2)nc2ccccc12 in this test?
### Response True

### Prompt Which outcome was entered for the compound COc1ccc2[nH]c3c(c2c1)CCN1C(=O)C(CC(=O)NCCC2=CCCCC2)C[C@H](C(=O)N2CCCCC2)[C@@]31CCc1ccccc1 (stereo not given in full) in this test?
### Response True

### Prompt Which outcome was entered for the compound COc1cc2c(c(OC)c1O)-c1ccc(OC)c(=O)cc1C(NC(=O)C(F)(F)F)CC2 (stereo not given) in this test?
### Response False

----------
assay: NFkB reporter suppression in cystic fibrosis bronchial cells – cell-based, uHTS hits, panel, cytotoxicity readout, dose response (AID 624344); settings: CF bronchial epithelial cells, PAF-induced NFkB reporter inhibition; with PAF, mean of runs
observation-type: IC50

In the examples that follow, each entry is paired with its recorded IC50.
1) CCc1cc(-c2[nH]ncc2-c2ccc(OC)cc2)c(O)cc1O: 3.56 µM
2) CCOC(=O)COc1ccc2ccccc2c1/C=C/[N+](=O)[O-]: 8.1 µM
3) C=C1C(=O)C2=CC1CCC(=O)C1(C)CCC(OC(C)=O)C(C)(C)C1CC2O (configuration not stated): 1.35 µM
4) CC(C)C[C@@H](CN1CCCC1CN1C(=S)NC[C@@H]1Cc1ccc(O)cc1)N1C[C@H](Cc2ccc(O)cc2)N(CC2CCCCCC2)C1=S (some centres not stated): 7.98 µM
5) Cc1c(C=O)c(C=O)c(C)n1Cc1ccccc1: 1.64 µM

### Prompt Please indicate IC50 recorded for COc1cc2oc(=O)cc(-c3ccc(-c4ccc(N(C)C)cc4)cc3)c2c(OC)c1OC
### Response 11.6 µM

### Prompt Please indicate IC50 recorded for Cc1cc(C)c2nc(C(F)(F)F)c(C#N)c(N)c2c1
### Response 0.827 µM

### Prompt Please indicate IC50 recorded for C=CCSc1nc2ccccc2n1C(=O)/C=C/c1ccc(OC)c(OC)c1
### Response 3.46 µM

----------
test: NFkB reporter suppression in cystic fibrosis bronchial cells – cell-based, uHTS hits, panel, cytotoxicity readout, dose response (AID 624344); details: CF bronchial epithelial cells, PAF-induced NFkB reporter inhibition; with PAF, mean of runs
The source made the active and inactive calls. The rule behind the calls is not given here.
Classes to choose from: 1 for active, 0 for inactive

### Prompt Which outcome was entered for the compound Cc1ccnc(Nc2nc(-c3sc(C)nc3C)cs2)c1 in this test?
### Response 1

### Prompt Which outcome was entered for the compound COc1cccc(-c2ccc3ncnc(NCc4cc(C)cs4)c3c2)c1 in this test?
### Response 1

### Prompt Which outcome was entered for the compound CC(=O)OCCCNc1cc(Sc2ccc(Cl)cc2)c2nonc2c1[N+](=O)[O-] in this test?
### Response 1

### Prompt Which outcome was entered for the compound COc1cc(/C=C2\SC(=O)N(CCNC(=O)c3sc4cc(F)ccc4c3Cl)C2=O)cc(OC)c1OC in this test?
### Response 1

### Prompt Which outcome was entered for the compound Fc1ccc(Nc2ccnc(Nc3ccc(F)cc3)n2)cc1 in this test?
### Response 1

### Prompt Which outcome was entered for the compound COCCNc1nc(Oc2cncc(Cl)c2)c2sccc2n1 in this test?
### Response 1

### Prompt Which outcome was entered for the compound COC(=O)c1ccc2c(c1)C(C)(C)C(/C=C/c1ccccc1O)=[N+]2C in this test?
### Response 1

### Prompt Which outcome was entered for the compound COc1cccc(-c2cnc3c(NC=O)cc(-c4ccc(OC)cc4OC)cn23)c1 in this test?
### Response 1

### Prompt Which outcome was entered for the compound COc1ccc(OC)c(-c2nnc3n2N=C(c2ccc(OC)c(OC4CCCC4)c2)CS3)c1 in this test?
### Response 1

### Prompt Which outcome was entered for the compound COC(=O)N1C(=O)[C@@](c2ccc(OC)cc2)(C(C)C)N1C(=O)OC in this test?
### Response 1

### Prompt Which outcome was entered for the compound CCC(=O)Nc1nc(C)c(-c2csc(Nc3cccc(O)c3)n2)s1 in this test?
### Response 1

### Prompt Which outcome was entered for the compound COc1ccccc1NC(=O)c1cc2c(CO)cnc(C)c2oc1=Nc1ccc(OC)c(OC)c1 in this test?
### Response 1

### Prompt Which outcome was entered for the compound Cc1nn(-c2ccccn2)c2c1-c1nc(N)ncc1CC2 in this test?
### Response 1

### Prompt Which outcome was entered for the compound COc1ccc(S(=O)(=O)c2c(O)c3ccc(C(=O)Nc4ccccc4Cl)cc3[nH]c2=O)cc1 in this test?
### Response 1

### Prompt Which outcome was entered for the compound O=C(Nc1ccc(C(=O)N2CCOCC2)cc1)Nc1cccc(C(F)(F)F)c1 in this test?
### Response 1

### Prompt Which outcome was entered for the compound CCOc1cc2c(cc1O)C(=NO)CC1C2CCC2(C)C(O)CCC12 (centres undefined) in this test?
### Response 1

### Prompt Which outcome was entered for the compound O=C(NCCc1ccccc1)c1coc(=O)c(Br)c1 in this test?
### Response 1

### Prompt Which outcome was entered for the compound O=C1Nc2ccccc2/C1=C/c1ccnc2ccccc12 in this test?
### Response 1

### Prompt Which outcome was entered for the compound Fc1ccccc1-c1csc(=Nc2cccnc2)n1CCCn1ccnc1 in this test?
### Response 1

### Prompt Which outcome was entered for the compound Cc1c(Cl)cccc1NC(=O)CSc1nc2ncc(Cl)cc2[nH]1 in this test?
### Response 1

### Prompt Which outcome was entered for the compound O=C(CCS(=O)(=O)c1ccccc1)N(CCCN1CCOCC1)c1nc2c(F)cccc2s1 in this test?
### Response 1

### Prompt Which outcome was entered for the compound CN(C)CCCN(C(=O)CCSc1ccccc1)c1nc2cc3c(cc2s1)OCO3 in this test?
### Response 1

### Prompt Which outcome was entered for the compound CCOc1cc(Br)c(Br)c(C=Nc2ccc(NC(C)=O)cc2)c1O in this test?
### Response 1

### Prompt Which outcome was entered for the compound NC(=O)c1c(Br)n(C2OC(CO)C(O)C2O)c2ncnc(N)c12 (centres undefined) in this test?
### Response 1

### Prompt Which outcome was entered for the compound Cc1ccc2nc(SCC(=O)Nc3cc(C(F)(F)F)ccc3N3CCOCC3)[nH]c2c1 in this test?
### Response 0

### Prompt Which outcome was entered for the compound CCCCCc1cc(O)c2c(C)cc(=O)oc2c1 in this test?
### Response 1

### Prompt Which outcome was entered for the compound COc1ccc(S(=O)(=O)N(C(C)=O)c2ccc(OC(C)=O)c3ccccc23)cc1[N+](=O)[O-] in this test?
### Response 1

### Prompt Which outcome was entered for the compound O=S(=O)(Nc1ccc(Cl)cc1NS(=O)(=O)c1ccccc1)c1ccccc1 in this test?
### Response 1

### Prompt Which outcome was entered for the compound CC(C)C[C@H]1CNC(=S)N1C[C@H]1CCCN1C[C@H](Cc1ccc(O)cc1)N1C[C@H](Cc2ccc(O)cc2)N(CC2CCCCC2)C1=S in this test?
### Response 0

### Prompt Which outcome was entered for the compound Clc1ccccc1C1=Nn2c(nnc2-c2ccncc2)SC1 in this test?
### Response 1

### Prompt Which outcome was entered for the compound CC(=O)c1c(C)n(-c2ccccc2)c2ccc(O)cc12 in this test?
### Response 1

### Prompt Which outcome was entered for the compound C=CC[C@]12CC=CC(=O)[C@@]1(O)O[C@H](c1ccc(OC)c(OC)c1)[C@H]2C in this test?
### Response 1

### Prompt Which outcome was entered for the compound COc1ccc(NC(=O)c2cc3c(-c4ccc(OC)c(OC)c4)nn(C)c3s2)cc1OC in this test?
### Response 1

### Prompt Which outcome was entered for the compound CC(C)Cc1nc2oc3c(NCC4CCCO4)ncnc3c2c2c1CCC2 (centres undefined) in this test?
### Response 1

### Prompt Which outcome was entered for the compound Cc1ccc(CCC(=O)Nc2ncc(Cc3cccc(Cl)c3Cl)s2)o1 in this test?
### Response 1

### Prompt Which outcome was entered for the compound CCOC(=O)c1ccc(-n2[nH]c(-c3ccccc3)cc2=O)cc1 in this test?
### Response 1

### Prompt Which outcome was entered for the compound Cc1cccc(Nc2ncnc3ccc(Br)cc23)c1 in this test?
### Response 1

### Prompt Which outcome was entered for the compound COc1ccc(CN2C[C@H]3CCCN3c3cc(Br)ccc3S2(=O)=O)cc1 in this test?
### Response 1

### Prompt Which outcome was entered for the compound CC(C)(C)c1nc(NC(=O)Nc2ccccc2)sc1Br in this test?
### Response 1
